Assay: Apparent passive permeability coefficient by cell based assay
Format: ADME
result.type: Papp (×10⁻⁶ cm/s)

# count of solved cases: 6
item.smiles	Papp [×10⁻⁶ cm/s]
C[C@@H](NC(=O)C1(NC(=O)c2cnccn2)CC1)c1ccc(-n2nc(Cl)c3ccccc32)cc1F	30
C[C@@H](NC(=O)C1(NC(=O)c2cncc(Cl)n2)CC1)c1ccc(-n2nc(Cl)c3ccccc32)cc1F	24
C[C@@H](NC(=O)C1(NC(=O)c2cncc(O)c2)CC1)c1ccc(-n2nc(Cl)c3ccccc32)cc1F	18
Cc1nnsc1C(=O)NC1(C(=O)N[C@H](C)c2ccc(-n3nc(Cl)c4ccccc43)cc2F)CC1	21
C[C@@H](NC(=O)C1(NC(=O)c2cncnc2)CC1)c1ccc(-n2nc(Cl)c3ccccc32)cc1F	24
C[C@@H](NC(=O)C1(NC(=O)c2ccnnc2)CC1)c1ccc(-n2nc(Cl)c3ccccc32)cc1F	25

a. Cc1cncc(C(=O)NC2(C(=O)N[C@H](C)c3ccc(-n4nc(Cl)c5ccccc54)cc3F)CC2)c1
b. C[C@@H](NC(=O)C1(NC(=O)c2ccc(Br)nc2)CC1)c1ccc(-n2nc(Cl)c3ccccc32)cc1F
Could you kindly indicate whether a or b has the higher Papp value? Pick one and reply with its label. a
(a: 22 ×10⁻⁶ cm/s, b: 8.2 ×10⁻⁶ cm/s)
